- Test system: Porcine atria myofibrils (atrial myosin ATPase)
- assayExplanation: Myofibril ATPase assay, porcine atria myofibrils
- Type: biochemical
- testConditions: Y75 value (no ‡ mark); porcine atria myofibrils
Recorded Atrial EC25, one value per entry.
Could you give me the number in nM? Just the number is fine.

Below: 5 compounds and their reported Atrial EC25.
| compound | propertyMeasured | testValue |
| --- | --- | --- |
| C[C@@H](NC(=O)C1(c2cc3c(F)c(F)ccc3[nH]c2=O)CC1)c1ncc(C#N)cc1F (single isomer, unassigned) [compound 2592] | Atrial EC25 | 130 |
| C[C@@H](NC(=O)Cc1cc2c(C#N)cccc2[nH]c1=O)c1ncc(C#N)cn1 (single isomer, unassigned) [compound 2037] | Atrial EC25 | 2880 |
| Cc1c(F)ccc2[nH]c(=O)c(CC(=O)N[C@H](C)c3ncc(F)cc3F)c(C#N)c12 [compound 1147] | Atrial EC25 | 2840 |
| Cc1cc(F)cnc1[C@@H](C)NC(=O)C1(c2cc3c(F)c(F)ccc3[nH]c2=O)CC1 (single isomer, unassigned) [compound 4805] | Atrial EC25 | 1660 |
| Cc1nc(C#N)ccc1[C@H](C)NC(=O)Cc1c(C)c2cc(F)ccc2[nH]c1=O [compound 1051] | Atrial EC25 | 140 |

The recorded Atrial EC25 for entry C[C@H](NC(=O)[C@@H](C)c1cc2c(Cl)c(O)ccc2[nH]c1=O)c1ccc(F)cc1F (single isomer, unassigned) [compound 88] equals 83970

Record summary for Cc1c(C(F)(F)C(=O)N[C@H](C)c2cc(C#N)ccn2)c(=O)[nH]c2ccc(F)cc12 (single isomer, unassigned) [compound 2575] : reported Atrial EC25 = 16130

# Atrial EC25 of Cc1c(CC(=O)N[C@@H](C)c2ccc(F)cc2F)c(=O)[nH]c2ccc(F)c(C#N)c12 [compound 83] = 40

GET /value?item= C[C@@H](NC(=O)C(F)(F)c1cc2c(F)c(F)ccc2[nH]c1=O)c1ncc(C#N)cn1 (single isomer, unassigned) [compound 2545] &field=Atrial EC25 returns 7980

Looking up Cc1c(C(F)(F)C(=O)N[C@H](C)c2ccc(C#N)nn2)c(=O)[nH]c2ccc(F)cc12 (single isomer, unassigned) [compound 2555] , I see its Atrial EC25 listed as 3650

Atrial EC25 recorded for this compound, C[C@@H](NC(=O)C(F)(F)c1cc2c(F)c(F)ccc2[nH]c1=O)c1cc(C#N)ccn1 (single isomer, unassigned) [compound 2557] , is 3660

# Atrial EC25 (compound: Cc1c(C(F)(F)C(=O)N[C@@H](C)c2cnc(C#N)cn2)c(=O)[nH]c2ccc(F)cc12 (single isomer, unassigned) [compound 4828] ) is 300

Lab book: Atrial EC25 of Cc1nnccc1C(C)NC(=O)Cc1cc2cc(F)c(F)cc2[nH]c1=O (stereo not shown) [compound 2073] noted as 100000
